Assay: Acute toxicity in iv dosed Kunming mouse measured for 7 days
Assay type: organism-based
Settings: in vivo, time 7 day
valueKind: LD50 at 168 h (mg/kg)
Give bare numbers, in mg/kg.

| smiles | LD50 at 168 h / mg/kg |
| --- | --- |
| COc1ccc(N(CCN2CCC(N3CCCC3)CC2)S(=O)(=O)c2ccc3c(c2)c2ccccc2n3C)c(OC)n1 | 70.7 |
| COc1ccc(N(CCN(C)C)S(=O)(=O)c2ccc3c(c2)c2ccccc2n3C)c(OC)n1 | 71.9 |

// sample COc1ccc(N(CCN2CCN(C)CC2)S(=O)(=O)c2ccc3c(c2)c2ccccc2n3C)c(OC)n1 , its LD50 at 168 h was 89.5

###

Assay: Acute toxicity in ip dosed Kunming mouse measured for 7 days
Assay type: organism-based
Settings: in vivo, time 7 day
valueKind: LD50 at 168 h
Answer format: number, then unit.

Lookup result for COc1ccc(NS(=O)(=O)c2ccc3c(c2)c2ccc(OP(=O)([O-])[O-])cc2n3C)c(OC)n1.[Na+].[Na+] ; measured LD50 at 168 h: 273 mg/kg

###

Assay: Acute toxicity in Kunming mouse assessed as survival at 60 mg/kg, iv measured for 7 days relative to control
Assay type: organism-based
Settings: in vivo, time 7 day
valueKind: survival at 168 h (%)
Give bare numbers, in %.

# survival at 168 h (compound: COc1ccc(N(CCN2CCN(C)CC2)S(=O)(=O)c2ccc3c(c2)c2ccccc2n3C)c(OC)n1 ) is 100

###

Test: Acute toxicity in Kunming mouse assessed as survival at 40 mg/kg, iv measured for 7 days relative to control
Assay type: organism-based
Conditions: in vivo, time 7 day
valueKind: survival at 168 h (%)
Give bare numbers, in %.

Looking up COc1ccc(N(CCN2CCN(C)CC2)S(=O)(=O)c2ccc3c(c2)c2ccccc2n3C)c(OC)n1 , I see its survival at 168 h listed as 100

###

Experiment: Acute toxicity in Kunming mouse assessed as survival at 100 mg/kg, iv measured for 7 days relative to control
Format: organism-based
Conditions: in vivo, time 7 day
Please respond with reported survival at 168 h for every item in the list.
Give bare numbers, in %.

Examples with their reported survival at 168 h follow.
| smiles | measuredResult |
| --- | --- |
| COc1ccc(N(CCN2CCN(C)CC2)S(=O)(=O)c2ccc3c(c2)c2ccccc2n3C)c(OC)n1 | 16.7 |
| COc1ccc(N(CCN2CCC(N3CCCC3)CC2)S(=O)(=O)c2ccc3c(c2)c2ccccc2n3C)c(OC)n1 | 16.7 |

Continue with the next compound.
Form field survival at 168 h, entry COc1ccc(N(CCN(C)C)S(=O)(=O)c2ccc3c(c2)c2ccccc2n3C)c(OC)n1 : 0

###

Assay: Aqueous solubility of compound in water at pH 7.4 incubated at 20 degC by HPLC-UV analysis
Format: physicochemical
Provide the reported solubility of each item.

For each listed entry, give its solubility.
1. COc1ccc(NS(=O)(=O)c2ccc3c(c2)c2ccc(OP(=O)([O-])[O-])cc2n3C)c(OC)n1.Cl.[Na+].[Na+]
2. COc1ccc(N(CCN2CCOCC2)S(=O)(=O)c2ccc3c(c2)c2ccccc2n3C)c(OC)n1.Cl
3. COc1ccc(N(CCCN2CCN(C)CC2)S(=O)(=O)c2ccc3c(c2)c2ccccc2n3C)c(OC)n1.Cl
4. COc1ccc(N(C(=O)CCN2CCCCC2)S(=O)(=O)c2ccc3c(c2)c2ccccc2n3C)c(OC)n1.Cl
5. COc1ccc(N(CCOP(=O)(O)O)S(=O)(=O)c2ccc3c(c2)c2ccccc2n3C)c(OC)n1.Cl
6. COc1ccc(NS(=O)(=O)c2ccc3c(c2)c2ccc(O)cc2n3C)c(OC)n1.Cl
7. COc1ccc(N(CCCN(C)C)S(=O)(=O)c2ccc3c(c2)c2ccccc2n3C)c(OC)n1.Cl
8. COc1ccc(N(CCOC(N)=O)S(=O)(=O)c2ccc3c(c2)c2ccccc2n3C)c(OC)n1.Cl

> 30 mg/mL
0.44 mg/mL
20.6 mg/mL
18.6 mg/mL
1.75 mg/mL
0.0015 mg/mL
20.5 mg/mL
0.47 mg/mL
